# polymerase ribozyme fitness (log ratio) annotations
B1: TPR t1 (parent)
chain: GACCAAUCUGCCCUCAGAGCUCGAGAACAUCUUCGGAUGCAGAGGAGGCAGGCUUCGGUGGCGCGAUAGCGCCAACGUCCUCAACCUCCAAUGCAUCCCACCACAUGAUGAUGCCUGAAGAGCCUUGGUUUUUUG

variants of: B1; assay: polymerase ribozyme fitness, log enrichment relative to wild type (log ratio); higher = more active; in vitro selection for triplet polymerase activity
Field format: numeric only.

// sample GACCAAUCUGCCCUCAGAGCUCGAGAACAUCUUCGGAUGCAGAGGAGGCAGGCUUCGGUGGCUCGAUAGCGCCAACGUCCUCAACCACCAAUGCAUCCCACCACAUGAUGAUGCCUGAAGAUCCUUGGUUUUUUG [G63U U87A G122U] , its polymerase ribozyme fitness (log ratio) was -1.97

// sample GACCAAUCUGCCCUCAGAGCUCGAGAACAUCUUCGGAUGCAGAAGAGGCAGUCUUCGGUGGCGCGAUAGCGCCAACGUCCUCAACCUCCAAUGCAUCCCACCACAUGAUGAUGCCUGAAGAGCCUUGGUUUUUUG [G44A G52U] , its polymerase ribozyme fitness (log ratio) was -2.04

// sample GACCAAUCUGCCCUCAGAGCUCGAGAACAUCUUCGGAUGCAGAGGAGGCAGGCUUCGGUGGCGCGAUAGCGCCAACGUCCUCAAACUCCAAUGCAUCCCACCACAUGAUGAUACCUGAAGCGCCUUGGUUUUUUG [C85A G113A A121C] , its polymerase ribozyme fitness (log ratio) was -2.05
